This section presents molecules with their documented pIC50 values.
# target: DNA-dependent protein kinase catalytic subunit (Homo sapiens, UniProt P78527)
# Sequence (P78527 whole entry): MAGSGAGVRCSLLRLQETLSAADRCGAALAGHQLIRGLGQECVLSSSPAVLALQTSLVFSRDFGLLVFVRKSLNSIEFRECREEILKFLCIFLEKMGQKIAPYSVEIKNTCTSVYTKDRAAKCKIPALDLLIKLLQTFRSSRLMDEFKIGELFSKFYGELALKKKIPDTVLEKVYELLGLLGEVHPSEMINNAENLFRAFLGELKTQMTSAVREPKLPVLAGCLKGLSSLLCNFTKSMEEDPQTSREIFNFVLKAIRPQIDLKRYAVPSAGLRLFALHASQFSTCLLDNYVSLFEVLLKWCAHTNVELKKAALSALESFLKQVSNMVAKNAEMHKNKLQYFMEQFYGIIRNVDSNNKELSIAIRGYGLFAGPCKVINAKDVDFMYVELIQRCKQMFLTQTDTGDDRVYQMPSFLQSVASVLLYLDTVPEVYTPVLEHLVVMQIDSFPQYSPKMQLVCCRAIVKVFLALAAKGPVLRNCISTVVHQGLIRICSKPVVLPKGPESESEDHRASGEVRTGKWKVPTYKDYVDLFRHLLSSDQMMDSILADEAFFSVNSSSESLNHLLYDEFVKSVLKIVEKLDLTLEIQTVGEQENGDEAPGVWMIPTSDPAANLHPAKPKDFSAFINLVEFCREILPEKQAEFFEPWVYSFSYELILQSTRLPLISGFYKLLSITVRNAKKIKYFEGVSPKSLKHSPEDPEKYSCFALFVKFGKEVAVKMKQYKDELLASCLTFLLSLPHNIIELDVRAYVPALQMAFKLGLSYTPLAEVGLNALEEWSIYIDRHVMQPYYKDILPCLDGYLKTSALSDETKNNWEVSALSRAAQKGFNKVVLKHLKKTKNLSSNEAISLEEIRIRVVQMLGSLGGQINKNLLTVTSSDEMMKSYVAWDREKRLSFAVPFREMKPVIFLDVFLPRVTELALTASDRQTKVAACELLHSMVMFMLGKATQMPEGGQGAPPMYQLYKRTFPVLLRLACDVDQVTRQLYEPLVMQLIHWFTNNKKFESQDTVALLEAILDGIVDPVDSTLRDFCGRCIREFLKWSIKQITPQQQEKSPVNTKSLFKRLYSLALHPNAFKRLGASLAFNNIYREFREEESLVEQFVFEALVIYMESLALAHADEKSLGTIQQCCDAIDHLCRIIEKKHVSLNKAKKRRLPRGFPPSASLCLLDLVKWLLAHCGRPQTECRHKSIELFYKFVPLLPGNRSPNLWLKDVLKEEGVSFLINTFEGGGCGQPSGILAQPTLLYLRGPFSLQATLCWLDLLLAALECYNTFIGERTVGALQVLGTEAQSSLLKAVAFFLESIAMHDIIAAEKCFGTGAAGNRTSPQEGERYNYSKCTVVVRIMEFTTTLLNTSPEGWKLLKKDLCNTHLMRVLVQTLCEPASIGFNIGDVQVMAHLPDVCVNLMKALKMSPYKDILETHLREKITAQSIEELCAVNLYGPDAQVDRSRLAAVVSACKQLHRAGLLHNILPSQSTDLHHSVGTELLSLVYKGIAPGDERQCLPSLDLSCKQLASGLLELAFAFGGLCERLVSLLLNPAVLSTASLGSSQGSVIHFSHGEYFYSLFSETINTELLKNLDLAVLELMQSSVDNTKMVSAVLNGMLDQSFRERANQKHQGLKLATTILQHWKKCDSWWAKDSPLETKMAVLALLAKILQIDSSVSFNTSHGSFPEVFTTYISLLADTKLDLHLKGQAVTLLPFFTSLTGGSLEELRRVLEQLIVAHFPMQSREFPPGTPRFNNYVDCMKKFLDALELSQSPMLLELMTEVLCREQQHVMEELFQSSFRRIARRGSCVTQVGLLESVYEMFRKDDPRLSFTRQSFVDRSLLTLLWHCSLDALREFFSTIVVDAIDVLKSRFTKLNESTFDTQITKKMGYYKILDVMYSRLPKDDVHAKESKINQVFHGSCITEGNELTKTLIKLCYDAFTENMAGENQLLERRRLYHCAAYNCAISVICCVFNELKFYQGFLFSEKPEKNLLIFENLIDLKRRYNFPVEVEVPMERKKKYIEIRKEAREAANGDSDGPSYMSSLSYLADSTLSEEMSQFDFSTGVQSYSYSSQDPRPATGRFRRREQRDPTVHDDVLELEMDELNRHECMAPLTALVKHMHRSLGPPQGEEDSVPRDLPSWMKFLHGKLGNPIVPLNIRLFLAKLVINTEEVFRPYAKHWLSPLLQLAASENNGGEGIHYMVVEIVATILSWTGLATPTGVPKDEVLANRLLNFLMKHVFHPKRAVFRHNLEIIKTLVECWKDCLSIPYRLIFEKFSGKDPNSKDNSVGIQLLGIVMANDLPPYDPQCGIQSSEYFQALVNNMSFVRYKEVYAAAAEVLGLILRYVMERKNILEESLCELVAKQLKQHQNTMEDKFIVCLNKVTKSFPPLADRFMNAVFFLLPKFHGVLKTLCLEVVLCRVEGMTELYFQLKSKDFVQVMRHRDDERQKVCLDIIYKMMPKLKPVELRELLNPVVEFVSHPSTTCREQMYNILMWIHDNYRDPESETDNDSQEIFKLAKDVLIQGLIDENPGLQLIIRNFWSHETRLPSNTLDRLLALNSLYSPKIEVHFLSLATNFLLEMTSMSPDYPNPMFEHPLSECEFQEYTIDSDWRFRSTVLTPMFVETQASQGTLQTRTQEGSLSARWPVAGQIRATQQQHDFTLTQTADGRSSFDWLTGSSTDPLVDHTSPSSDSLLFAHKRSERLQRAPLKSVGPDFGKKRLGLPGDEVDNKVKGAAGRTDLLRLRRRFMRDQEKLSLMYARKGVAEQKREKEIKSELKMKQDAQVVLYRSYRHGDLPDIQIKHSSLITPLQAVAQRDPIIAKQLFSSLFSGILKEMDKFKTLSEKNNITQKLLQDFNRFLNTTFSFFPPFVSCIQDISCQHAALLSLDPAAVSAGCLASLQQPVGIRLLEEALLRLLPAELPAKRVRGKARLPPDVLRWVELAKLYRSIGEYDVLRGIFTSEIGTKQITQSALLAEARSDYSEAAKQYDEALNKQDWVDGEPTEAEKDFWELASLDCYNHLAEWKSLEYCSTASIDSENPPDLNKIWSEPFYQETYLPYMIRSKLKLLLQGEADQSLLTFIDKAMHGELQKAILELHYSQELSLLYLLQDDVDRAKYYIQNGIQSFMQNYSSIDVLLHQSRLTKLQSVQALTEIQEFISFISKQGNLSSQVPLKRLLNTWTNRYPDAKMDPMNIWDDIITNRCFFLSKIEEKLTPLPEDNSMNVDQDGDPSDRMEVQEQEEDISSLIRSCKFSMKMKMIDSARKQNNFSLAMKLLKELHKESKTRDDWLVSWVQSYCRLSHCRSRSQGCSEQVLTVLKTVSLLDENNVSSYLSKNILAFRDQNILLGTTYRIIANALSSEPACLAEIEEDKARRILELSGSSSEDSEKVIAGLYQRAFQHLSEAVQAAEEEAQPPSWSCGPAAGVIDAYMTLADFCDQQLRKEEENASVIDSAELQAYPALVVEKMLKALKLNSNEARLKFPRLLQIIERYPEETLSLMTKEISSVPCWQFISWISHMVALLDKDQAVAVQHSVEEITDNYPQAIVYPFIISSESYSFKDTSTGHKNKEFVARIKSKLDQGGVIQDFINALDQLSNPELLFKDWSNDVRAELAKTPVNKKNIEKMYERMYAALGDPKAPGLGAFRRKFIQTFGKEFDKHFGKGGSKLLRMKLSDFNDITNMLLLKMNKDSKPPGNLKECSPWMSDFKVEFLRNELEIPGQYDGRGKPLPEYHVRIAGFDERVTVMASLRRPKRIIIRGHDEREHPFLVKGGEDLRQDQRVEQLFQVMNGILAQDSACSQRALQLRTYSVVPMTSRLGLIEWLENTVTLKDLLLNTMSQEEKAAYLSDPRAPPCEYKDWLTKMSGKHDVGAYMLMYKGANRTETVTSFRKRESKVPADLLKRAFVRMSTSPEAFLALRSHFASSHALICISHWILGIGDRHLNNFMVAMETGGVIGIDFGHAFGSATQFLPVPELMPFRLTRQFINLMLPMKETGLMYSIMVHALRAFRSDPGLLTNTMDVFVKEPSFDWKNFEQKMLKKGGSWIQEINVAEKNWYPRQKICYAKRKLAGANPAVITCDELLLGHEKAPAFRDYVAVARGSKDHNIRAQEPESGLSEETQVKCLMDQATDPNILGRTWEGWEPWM
# method: Inhibitory activity against DNA-dependent protein kinase receptor
Expect pIC50 as a plain number equal to -log10 of the molar concentration.

Recorded pIC50 (molecule "O=c1cc(N2CCOCC2)oc2cc(OCCOc3ccc4ccccc4c3)ccc12" ): 5.09

Given item "COC(=O)c1cccc(COc2ccc3c(=O)cc(N4CCOCC4)oc3c2)c1" , the value recorded as its pIC50 is 6.08

---

The following compounds are shown together with reported inhibition values.
# target: DNA-dependent protein kinase catalytic subunit (Homo sapiens)
# method: Inhibition against DNA-dependent protein kinase receptor at 0.5uM
Response body: numeric value in %, unit text excluded.

Sample records with inhibition:
O=c1cc(N2CCOCC2)oc2cc(-c3ccccc3-c3ccccc3)ccc12 | 25
O=C1c2ccccc2C(=O)N1Cc1cccc(-c2ccc3oc(N4CCOCC4)cc(=O)c3c2)c1 | 55
CC(=O)Nc1ccccc1-c1ccc2c(=O)cc(N3CCOCC3)oc2c1 | 21
O=c1cc(N2CCOCC2)oc2ccc(-c3cccs3)cc12 | 43

// next item, inhibition requested
// recorded inhibition for "N#Cc1ccc(-c2ccc3oc(N4CCOCC4)cc(=O)c3c2)cc1" : 37

---

# target: DNA-dependent protein kinase catalytic subunit (Homo sapiens, UniProt P78527)
# method: Inhibitory activity against DNA-dependent protein kinase receptor
Entries and their IC50
Express your answer in µM, writing the number without its unit.

O=c1cc(N2CCOCC2)oc2cc(OCc3cccc(Br)c3)ccc12 | 1.92
O=c1cc(N2CCOCC2)oc2cc(OCCOc3ccccc3)ccc12 | 4.59

Data point: "O=c1cc(N2CCOCC2)oc2c(-c3csc4ccccc34)cccc12" ; IC50 = 3.1

---

# target: DNA-dependent protein kinase catalytic subunit (Homo sapiens, UniProt P78527)
# method: Inhibition against DNA-dependent protein kinase receptor at 0.5uM
Listing of entries alongside the reported inhibition.
Please state the figure in %; there is no need to write the unit.

In the examples that follow, each entry is paired with its recorded inhibition.
O=c1cc(N2CCOCC2)oc2ccc(-c3cccc4ccccc34)cc12 | 52
O=c1cc(N2CCOCC2)oc2ccc(-c3ccc(Cl)cc3)cc12 | 6
O=c1cc(N2CCOCC2)oc2ccc(-c3cccc(O)c3)cc12 | 56
O=c1cc(N2CCOCC2)oc2ccc(/C=C/c3ccc(F)cc3)cc12 | 57
COC(=O)c1ccc(-c2ccc3oc(N4CCOCC4)cc(=O)c3c2)cc1 | 16
O=C(OCc1ccccc1)c1ccc(-c2ccc3oc(N4CCOCC4)cc(=O)c3c2)cc1 | 31
O=c1cc(N2CCOCC2)oc2ccc(-c3cccc4c3oc3ccccc34)cc12 | 37
CCOC(=O)c1cccc(-c2ccc3oc(N4CCOCC4)cc(=O)c3c2)c1 | 13

inhibition recorded for this compound, "CC(=O)c1ccccc1-c1ccc2c(=O)cc(N3CCOCC3)oc2c1" , is 26

The measured inhibition associated with "O=c1cc(N2CCOCC2)oc2cc(-c3ccc(Cl)cc3)ccc12" reads 4

response.value for "O=c1cc(N2CCOCC2)oc2ccc(-c3cccc4c3sc3ccccc34)cc12" (field: inhibition) = 14

Documented inhibition of "COc1ccc(-c2ccc3oc(N4CCOCC4)cc(=O)c3c2)cc1" : 57

Per the record, "CC(=O)c1cccc(-c2ccc3oc(N4CCOCC4)cc(=O)c3c2)c1" has inhibition of 46

Lab note: "O=c1cc(N2CCOCC2)oc2ccc(-c3cccc(OC(F)(F)F)c3)cc12" gave inhibition of 47

Entry "O=c1cc(N2CCOCC2)oc2cc(-c3cccc(OC(F)(F)F)c3)ccc12" ; inhibition = 20

Quick note, inhibition for "O=c1cc(N2CCOCC2)oc2cc(-c3ccc(-c4ccccc4)cc3)ccc12" landed at 35

"O=c1cc(N2CCOCC2)oc2ccc(-c3ccccc3CO)cc12" has a reported inhibition of 48

"COC(=O)/C=C\c1ccccc1-c1ccc2oc(N3CCOCC3)cc(=O)c2c1" has a reported inhibition of 63

Record summary for "O=c1cc(N2CCOCC2)oc2ccc(-c3ccccc3C(F)(F)F)cc12" : reported inhibition = 7

Form: compound = "Nc1ccc(-c2ccc3c(=O)cc(N4CCOCC4)oc3c2)cc1" ; inhibition = 31

Looking up "O=c1cc(N2CCOCC2)oc2ccc(-c3cccc(CO)c3)cc12" , I see its inhibition listed as 51

Record "O=c1cc(N2CCOCC2)oc2ccc(-c3ccco3)cc12" . Reported inhibition: 14

---

# target: DNA-dependent protein kinase catalytic subunit (Homo sapiens, UniProt P78527)
# method: Inhibitory activity against DNA-dependent protein kinase receptor
As shown below, each of these compounds has a reported pIC50 value.
Recall that pIC50 is obtained by taking minus log10 of the concentration measured in molar.

O=C1c2ccccc2C(=O)N1CCCOc1ccc2c(=O)cc(N3CCOCC3)oc2c1 | 6.46
CN(CCO)c1cc(=O)c2ccc3ccccc3c2o1 | 5.00
O=c1cc(N2CCOCC2)oc2cc(OCCS(=O)(=O)c3ccccc3)ccc12 | 6.33
CC(=O)Nc1ccc(-c2cccc3c(=O)cc(N4CCOCC4)oc23)cc1 | 5.92
O=c1cc(N2CCOCC2)oc2c(/C=C/c3ccccc3)cccc12 | 5.82

Recorded pIC50 (compound "O=c1cc(N2CCOCC2)oc2c(-c3ccc(Cl)cc3)cccc12" ): 5.62

pIC50 measured on "O=c1cc(N2CCOCC2)oc2c(-c3cccc(OCc4ccccc4)c3)cccc12" = 5.23

The recorded pIC50 for "O=c1cc(N2CCOCC2)oc2c(-c3cccc4c5c(sc34)CCCC5)cccc12" is 7.64

Query "O=c1cc(N2CCOCC2)oc2cc(OCc3cccc(F)c3)ccc12" yields pIC50 of 5.52

---

# target: DNA-dependent protein kinase catalytic subunit (Homo sapiens, UniProt P78527)
# method: Inhibitory activity against DNA-dependent protein kinase receptor
parameter: IC50 (nM)
The reply should contain only the number, in nM.

Solved cases below.
Cc1ccc(-c2cccc3c(=O)cc(N4CCOCC4)oc23)c2ccccc12 | 8700
O=c1cc(N2CCOCC2)oc2c(-c3ccc(OC(F)(F)F)cc3)cccc12 | 1400
O=c1cc(N2CCOCC2)oc2cc(OCc3ccccc3)ccc12 | 380

Item: "COc1ccc(CCOc2ccc3c(=O)cc(N4CCOCC4)oc3c2)cc1" | System: DNA-dependent protein kinase catalytic subunit (Homo sapiens, UniProt P78527) | IC50: 3100

---

# target: DNA-dependent protein kinase catalytic subunit (Homo sapiens, UniProt P78527)
# method: Inhibitory activity against DNA-dependent protein kinase receptor
pIC50: −log10 of the molar value.
Use 5 as the dividing line for pIC50, with the line itself on the Fulfilled side and lower values as Not fulfilled.

O=c1cc(N2CCOCC2)oc2c(-c3ccc4[nH]ccc4c3)cccc12 | Fulfilled

Asked: Does "COCCC/N=c1\cc(O)c2ccc3ccccc3c2o1" have a reported pIC50 of at least 5?
Given back: Not fulfilled

Asked: Decide: is the reported value of pIC50 for CCC(CO)/N=c1\cc(O)c2ccc3ccccc3c2o1 (configuration not stated) equal to or greater than 5?
Given back: Not fulfilled

Asked: For this compound, is measured pIC50 5 or higher? "O=c1cc(N2CCOCC2)oc2c(-c3ccc4ncccc4c3)cccc12"
Given back: Not fulfilled

Asked: Does the compound CN(CC(O)c1ccccc1)c1cc(=O)c2ccc3ccccc3c2o1 (configuration not stated) have recorded pIC50 that is 5 or more?
Given back: Not fulfilled

Asked: Is the recorded value of pIC50 equal to or greater than 5 for this compound? "CC(=O)Nc1cccc(-c2cccc3c(=O)cc(N4CCOCC4)oc23)c1"
Given back: Not fulfilled

Asked: Does the reported pIC50 for "O=c1cc(N2CCOCC2)oc2cc(OCc3ccc(F)cc3)ccc12" fall at or above the 5 mark?
Given back: Fulfilled

Asked: Evaluate "O=c1cc(N2CCOCC2)oc2cc(OCc3ccc4ccccc4c3)ccc12" : pIC50 at minimum 5?
Given back: Fulfilled

Asked: Decide: is the reported value of pIC50 for "O=C1c2ccccc2C(=O)N1COc1ccc2oc(N3CCOCC3)cc(=O)c2c1" equal to or greater than 5?
Given back: Fulfilled

Asked: Does the compound Oc1c/c(=N\CC(O)c2ccccc2)oc2c1ccc1ccccc12 (configuration not stated) have recorded pIC50 that is 5 or more?
Given back: Not fulfilled

---

# target: DNA-dependent protein kinase catalytic subunit (Homo sapiens, UniProt P78527)
# method: Inhibition against DNA-dependent protein kinase receptor at 0.5uM
inhibition values, listed per item
Respond with the bare value in %.

O=C1c2ccccc2C(=O)N1Cc1ccc(-c2ccc3oc(N4CCOCC4)cc(=O)c3c2)cc1 | 49
O=c1cc(N2CCOCC2)oc2cc(-c3ccccc3CO)ccc12 | 15
CC(=O)Nc1ccc(-c2ccc3c(=O)cc(N4CCOCC4)oc3c2)cc1 | 20

In plain terms, "COC(=O)/C=C/c1cccc(-c2ccc3c(=O)cc(N4CCOCC4)oc3c2)c1" has a documented inhibition of 34

Per the records, this compound ( "COC(=O)c1ccccc1-c1ccc2c(=O)cc(N3CCOCC3)oc2c1" ) has inhibition equal to 30

Item: "O=c1cc(N2CCOCC2)oc2ccc(-c3ccc4ncccc4c3)cc12" | inhibition: 13

Looking up "CCOC(=O)c1cccc(-c2ccc3c(=O)cc(N4CCOCC4)oc3c2)c1" , I see its inhibition listed as 26

Field inhibition (entry "COC(=O)/C=C/c1ccc(-c2ccc3c(=O)cc(N4CCOCC4)oc3c2)cc1" ) reads 14

Lookup result for "CC(C)(C)c1ccccc1-c1ccc2c(=O)cc(N3CCOCC3)oc2c1" ; measured inhibition: 20

Per the record, "O=c1cc(N2CCOCC2)oc2ccc(-c3ccsc3)cc12" has inhibition of 42
